assay.summary: self-splicing fitness, log relative to wild type (ln ratio); higher = more splicing; Tetrahymena group I intron in knt gene, E. coli kanamycin selection, DiMSum; sequences stand for … in CUCUCU…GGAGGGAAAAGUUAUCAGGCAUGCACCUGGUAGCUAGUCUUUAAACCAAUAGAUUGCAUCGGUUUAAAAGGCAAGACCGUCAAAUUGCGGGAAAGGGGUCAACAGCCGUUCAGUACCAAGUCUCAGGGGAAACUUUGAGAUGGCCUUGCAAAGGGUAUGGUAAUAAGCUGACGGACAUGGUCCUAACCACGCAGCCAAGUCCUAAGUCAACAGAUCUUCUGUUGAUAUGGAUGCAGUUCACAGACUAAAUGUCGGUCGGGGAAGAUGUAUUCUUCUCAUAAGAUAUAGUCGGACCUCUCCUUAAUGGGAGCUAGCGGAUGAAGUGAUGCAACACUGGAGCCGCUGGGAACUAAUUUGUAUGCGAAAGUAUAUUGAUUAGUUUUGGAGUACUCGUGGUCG;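 further: selection with 25 µg/mL kanamycin versus none on LB agar overnight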
stated.conditions: 30 °C
Please mark 1 (yes) if the recorded self-splicing fitness (ln) is equal to or greater than -2, and 0 (no) if it falls below.

AUUUAGCAAUAUUACGGUUU ... 1 (yes)
GGCAAGCAAUAUUACGAGUA ... 1 (yes)
UAGGAGCAAUAUUACGUUAA ... 1 (yes)

## Task Determine whether measured self-splicing fitness (ln) meets or exceeds -2 for "UAUAAGCAAUAUUACGCGAA"
## Result 1 (yes)

## Task Determine whether measured self-splicing fitness (ln) meets or exceeds -2 for "UAACAGCAAUAUUACGGACC"
## Result 0 (no)

## Task Determine whether measured self-splicing fitness (ln) meets or exceeds -2 for "CCCUAGCAAUAUUACGUGAG"
## Result 0 (no)

## Task Determine whether measured self-splicing fitness (ln) meets or exceeds -2 for "GCGAAGCAAUAUUACGAUUG"
## Result 0 (no)

====

For each of the sequences below, state its self-splicing fitness (ln).
assay.summary: self-splicing fitness, log relative to wild type (ln ratio); higher = more splicing; Tetrahymena group I intron in knt gene, E. coli kanamycin selection, DiMSum; sequences stand for … in CUCUCU…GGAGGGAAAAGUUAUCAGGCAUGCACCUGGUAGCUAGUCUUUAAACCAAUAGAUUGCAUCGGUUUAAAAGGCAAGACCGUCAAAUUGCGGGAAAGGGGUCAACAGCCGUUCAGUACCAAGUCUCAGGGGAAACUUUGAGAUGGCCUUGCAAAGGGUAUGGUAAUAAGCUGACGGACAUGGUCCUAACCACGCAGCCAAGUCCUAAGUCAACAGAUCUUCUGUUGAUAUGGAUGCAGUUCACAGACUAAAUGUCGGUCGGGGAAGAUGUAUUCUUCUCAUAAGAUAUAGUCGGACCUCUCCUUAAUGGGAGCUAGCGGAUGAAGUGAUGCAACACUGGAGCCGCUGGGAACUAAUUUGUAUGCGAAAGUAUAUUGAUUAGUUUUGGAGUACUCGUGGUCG
stated.conditions: 37 °C
Numbers only.

GGCAAGCAAUAUUACGGAAU ... -0.506
CUCGAGCAAUAUUACGACUA ... -0.507
CGUUAGCAAUAUUACGUUAA ... -3.24

Required: self-splicing fitness (ln), one value per sequence below.
1. UAAUAGCAAUAUUACGAGGA
2. UCCCAGCAAUAUUACGCUAU
3. GCUCAGCAAUAUUACGUAUG
4. UAAAAGCAAUAUUACGGCGA

## Result
1: -2.62; 2: -1.31; 3: -1.62; 4: 0.453

Required: self-splicing fitness (ln), one value per sequence below.
1. UCCGAGCAAUAUUACGCCGG
2. UUCCAGCAAUAUUACGCCUA
3. GUCGAGCAAUAUUACGCGGC

## Result
-2.15
0.206
-2.25

Required: self-splicing fitness (ln), one value per sequence below.
1. GCACAGCAAUAUUACGGAUC
2. UCGGAGCAAUAUUACGACUA
3. CACAAGCAAUAUUACGGAGA
4. GAACAGCAAUAUUACGCACA

## Result
-0.336
-1.83
-2.65
-0.338

====

For each of the sequences below, state its self-splicing fitness (ln).
assay.summary: self-splicing fitness, log relative to wild type (ln ratio); higher = more splicing; Tetrahymena group I intron in knt gene, E. coli kanamycin selection, DiMSum; sequences stand for … in CUCUCU…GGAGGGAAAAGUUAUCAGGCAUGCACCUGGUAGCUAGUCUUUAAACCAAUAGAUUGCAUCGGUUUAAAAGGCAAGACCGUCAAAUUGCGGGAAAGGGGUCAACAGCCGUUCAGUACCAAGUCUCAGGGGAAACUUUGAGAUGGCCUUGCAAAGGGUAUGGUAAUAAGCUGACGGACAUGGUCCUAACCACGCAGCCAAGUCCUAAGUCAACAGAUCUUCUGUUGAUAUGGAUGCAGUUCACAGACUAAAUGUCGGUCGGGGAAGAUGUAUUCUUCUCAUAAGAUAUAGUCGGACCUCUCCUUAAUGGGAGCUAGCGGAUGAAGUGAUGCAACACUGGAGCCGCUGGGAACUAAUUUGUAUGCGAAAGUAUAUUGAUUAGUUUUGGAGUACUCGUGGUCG
stated.conditions: 37 °C

Study these solved cases before continuing.
ACGCAGCAAUAUUACGAACC ... -0.986
GAAAAGCAAUAUUACGGUGC ... -2.05

Then there is this sequence:
## Task May I ask what self-splicing fitness (ln) has been recorded for "GUUUAGCAAUAUUACGAGGU" ?
## Result -2.03

====

assay.summary: self-splicing fitness, log relative to wild type (ln ratio); higher = more splicing; Tetrahymena group I intron in knt gene, E. coli kanamycin selection, DiMSum; sequences stand for … in CUCUCU…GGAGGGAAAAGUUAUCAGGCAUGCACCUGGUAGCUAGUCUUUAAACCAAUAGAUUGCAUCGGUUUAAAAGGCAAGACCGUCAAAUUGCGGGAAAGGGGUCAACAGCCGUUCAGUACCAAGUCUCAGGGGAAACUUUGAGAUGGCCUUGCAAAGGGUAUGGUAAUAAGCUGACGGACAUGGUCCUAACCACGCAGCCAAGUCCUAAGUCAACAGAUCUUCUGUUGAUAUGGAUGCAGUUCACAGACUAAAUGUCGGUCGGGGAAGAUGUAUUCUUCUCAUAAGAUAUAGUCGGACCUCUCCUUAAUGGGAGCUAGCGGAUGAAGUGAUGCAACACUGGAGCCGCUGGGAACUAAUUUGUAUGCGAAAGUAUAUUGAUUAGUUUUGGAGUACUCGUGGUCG
stated.conditions: 30 °C
Label scheme for self-splicing fitness (ln): 1 (below -3), 2 (-3 to below -1), 3 (-1 or more)

CACUAGCAAUAUUACGACAC ... 2
GGAUAGCAAUAUUACGCAAG ... 2
CACUAGCAAUAUUACGGUGG ... 2
CCCUAGCAAUAUUACGCAUG ... 2

## Task Band for "CUAAAGCAAUAUUACGAUUG" ?
## Result 3

## Task Band for "CCUAAGCAAUAUUACGACGG" ?
## Result 1

## Task Band for "GGGCAGCAAUAUUACGCAAC" ?
## Result 3

## Task Band for "UACGAGCAAUAUUACGGCUU" ?
## Result 1

## Task Band for "UCCCAGCAAUAUUACGCGCU" ?
## Result 1

## Task Band for "UAGUAGCAAUAUUACGAUUU" ?
## Result 2

## Task Band for "CGACAGCAAUAUUACGUGCG" ?
## Result 1

## Task Band for "AGCGAGCAAUAUUACGUAUG" ?
## Result 1

## Task Band for "UGUUAGCAAUAUUACGGACG" ?
## Result 3

## Task Band for "CCCGAGCAAUAUUACGCUAG" ?
## Result 1

## Task Band for "UUCUAGCAAUAUUACGACUG" ?
## Result 2

## Task Band for "GGGUAGCAAUAUUACGGACU" ?
## Result 3

## Task Band for "AUUCAGCAAUAUUACGCGAU" ?
## Result 1

====

For each of the sequences below, state its self-splicing fitness (ln).
assay.summary: self-splicing fitness, log relative to wild type (ln ratio); higher = more splicing; Tetrahymena group I intron in knt gene, E. coli kanamycin selection, DiMSum; sequences stand for … in CUCUCU…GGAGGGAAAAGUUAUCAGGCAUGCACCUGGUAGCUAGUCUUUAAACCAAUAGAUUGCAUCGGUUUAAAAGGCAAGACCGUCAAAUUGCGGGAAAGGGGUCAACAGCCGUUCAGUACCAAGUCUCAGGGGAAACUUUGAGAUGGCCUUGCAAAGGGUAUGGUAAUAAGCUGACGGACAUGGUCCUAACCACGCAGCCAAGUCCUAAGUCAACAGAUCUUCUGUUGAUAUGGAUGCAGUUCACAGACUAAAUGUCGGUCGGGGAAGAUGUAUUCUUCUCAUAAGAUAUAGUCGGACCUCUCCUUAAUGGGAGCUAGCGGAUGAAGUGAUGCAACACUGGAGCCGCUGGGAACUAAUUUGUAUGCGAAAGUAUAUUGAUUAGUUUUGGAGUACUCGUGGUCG
stated.conditions: 37 °C

Study these solved cases before continuing.
CGACAGCAAUAUUACGACUU ... -0.881
CAUGAGCAAUAUUACGGUGC ... -3
GGCUAGCAAUAUUACGUGCA ... 0.0604
GGCUAGCAAUAUUACGAAAC ... -0.972
GCCCAGCAAUAUUACGACAC ... -0.294

Required: self-splicing fitness (ln), one value per sequence below.
1. UGGGAGCAAUAUUACGCACA
2. ACGUAGCAAUAUUACGUGGG
3. CGAGAGCAAUAUUACGCGCA
4. ACAGAGCAAUAUUACGGUAC
5. UUUCAGCAAUAUUACGACUG

## Result
1: 0.399; 2: -3.07; 3: -1.38; 4: -3.02; 5: -1.53
